Taken from PubChem BioAssay (NCATS).

Test system: MCC-26
EXPERIMENTAL DETAILS: qHTS assay to identify novel small-molecules to repurpose for Merkel cell carcinoma treatment (AID 1296009); also: nearly all actives have a fitted effect of over 60% in size
EXPERIMENTAL CONTEXT: MCC and control cell lines, CellTiter-Glo viability, 72 h; series mostly up to 46 µM
Inconclusive results are not listed. Calls of active or inactive are those of the source. Calls follow the shape of the dose curve; as a rule, active = well fitted inhibition curve with a large enough effect; inconclusive = small, poorly fitted or top-dose-only effect; inactive = flat fitted curve, though single readings scatter.
Outcome codes: active, inactive

{"columns": ["COMPOUND", "CATEGORY"],
 "data": [
  ["Cc1cncc2cccc(S(=O)(=O)N3CCCN(C(=O)CN)C[C@@H]3C)c12", "inactive"],
  ["CC(C)N(CC[C@H](c1ccccc1)c1cc(CO)ccc1O)C(C)C", "inactive"],
  ["Cn1cc(C=CC(=O)c2cccc(F)c2)cc1C=CC(=O)NO", "inactive"],
  ["CCS(=O)(=O)Nc1ccc2[nH]c(O)c(C(=Nc3ccc(CN4CCCCC4)cc3)c3ccccc3)c2c1", "active"],
  ["O=C(C[C@@H]1CC=CCCC(=O)O[C@H](c2ccccc2)CNC1=O)NCc1ccc(Cl)cc1", "inactive"],
  ["CCC[C@H]1C[C@H](C(=O)N[C@@H]([C@@H]2O[C@@H](SC)[C@@H](O)[C@@H](O)[C@@H]2O)[C@H](C)Cl)N(C)C1", "inactive"],
  ["Nc1nc(N)c2nc(-c3cccc(O)c3)c(-c3cccc(O)c3)nc2n1", "inactive"],
  ["NC(=NCCCCCCN=C(N)N=C(N)Nc1ccc(Cl)cc1)N=C(N)Nc1ccc(Cl)cc1", "inactive"],
  ["CCCc1nc(C(C)(C)O)c(C(=O)O)n1Cc1ccc(-c2ccccc2-c2nn[nH]n2)cc1", "inactive"],
  ["NC(=O)c1ncn([C@@H]2O[C@H](CO)[C@@H](O)[C@@H]2O)c1N", "inactive"],
  ["CC1(C)CC(O)CC(C)(C)N1[O]", "inactive"],
  ["NC(=O)c1cccc(-c2cccc(OC(=O)NC3CCCCC3)c2)c1", "inactive"],
  ["Nc1nc(=O)n([C@H]2CSC(CO)O2)cc1F (some centres not stated)", "inactive"],
  ["Cn1cnc2c(F)c(Nc3ccc(Br)cc3F)c(C(=O)NOCCO)cc21", "inactive"],
  ["C[C@](Cc1c[nH]c2ccccc12)(NC(=O)OC1C2CC3CC(C2)CC1C3)C(=O)NC[C@H](NC(=O)CCC(=O)O)c1ccccc1 (some centres not stated)", "inactive"],
  ["COc1cc2c(cc1O)CCC1C2CC[C@@]2(C)C1CC[C@@H]2O (some centres not stated)", "inactive"],
  ["C#Cc1cccc(Nc2ncnc3cc(OCCOC)c(OCCO)cc23)c1", "inactive"],
  ["C[C@@H](Oc1ccc2[nH]nc(C=Cc3cnn(CCO)c3)c2c1)c1c(Cl)cncc1Cl", "active"],
  ["COc1cc2c(cc1OC)[C@@H]1C(=O)c3ccc4c(c3O[C@@H]1CO2)C=CC(C)(C)O4", "inactive"],
  ["CC(N[C@H]1CCCC[C@H]1NC(=O)c1ccc(Cl)cc1)c1cccc2ccccc12 (some centres not stated)", "inactive"],
  ["Cc1cn([C@@H]2O[C@H](CO)[C@@H](O)[C@H]2F)c(=O)[nH]c1=O", "inactive"],
  ["CC(=O)O[C@H]1C[C@@H]2CC[C@H]3[C@H]4C[C@H]([N+]5(C)CCCCC5)[C@@H](OC(C)=O)[C@@]4(C)CC[C@@H]3[C@@]2(C)C[C@H]1[N+]1(C)CCCCC1", "inactive"],
  ["O=c1ccn([C@@H]2O[C@H](CO)[C@H](O)[C@@H]2F)c(=O)[nH]1", "inactive"],
  ["CCCCCCCCCCCC(CC1OC(=O)C1CCCCCC)OC(=O)C(CC(C)C)NC=O (configuration not stated)", "inactive"],
  ["CN1[C@H]2CC(OC(=O)[C@@H](CO)c3ccccc3)C[C@H]1[C@H]1O[C@H]12 (some centres not stated)", "inactive"],
  ["CC(Cc1ccc(O)c(O)c1)(NN)C(=O)O (configuration not stated)", "inactive"],
  ["Oc1ccc([C@@H]2Oc3ccc(O)cc3[C@@H]3CCC[C@@H]32)cc1", "inactive"],
  ["O=C(CN1C(=O)C2(CCCC2)NC[C@H]1c1cc(F)cc(F)c1)Nc1ccc2c(c1)C[C@@]1(C2)C(=O)Nc2ncccc21", "inactive"],
  ["C[N+](C)([O-])CCNc1ccc(NCC[N+](C)(C)[O-])c2c1C(=O)c1c(O)ccc(O)c1C2=O", "inactive"],
  ["CCN(C(=O)c1c(O)c2c(Cl)cccc2n(C)c1=O)c1ccccc1", "inactive"],
  ["CN[C@@H]1C[C@H]2O[C@@](C)([C@H]1OC)n1c3ccccc3c3c4c(c5c6ccccc6n2c5c31)C(=O)N[C@H]4O", "active"],
  ["c1ccc2c(Oc3nc(Nc4ccc(N5CCOCC5)cc4)c4ncn(C5CCCCC5)c4n3)cccc2c1", "inactive"],
  ["N#CC(=C(O)c1ccc(Cl)cc1Cl)c1nc2cc(Cl)ccc2c(=O)[nH]1", "inactive"],
  ["O=C(Nc1nnc(-c2ccco2)o1)c1cc(-c2ccccc2)nc2ccccc12", "inactive"],
  ["Nc1nc2c(c(=O)[nH]1)N(C=O)[C@H](CNc1ccc(C(=O)N[C@@H](CCC(=O)O)C(=O)O)cc1)CN2", "inactive"],
  ["C=C(C)[C@@H]1CC[C@]2(C)CC[C@]3(C)[C@H](CC[C@@H]4[C@@]5(C)CC[C@H](O)C(C)(C)[C@H]5CC[C@]43C)[C@@H]12", "inactive"],
  ["C[C@H](CCC(=O)O)[C@H]1CCC2C3C[C@H](O)[C@@H]4C[C@H](O)CC[C@]4(C)C3CC[C@@]21C (some centres not stated)", "inactive"]
]}
